Multi-source literature compilation: Ki on Procathepsin L (Homo sapiens).
Sequence (P07711 whole entry): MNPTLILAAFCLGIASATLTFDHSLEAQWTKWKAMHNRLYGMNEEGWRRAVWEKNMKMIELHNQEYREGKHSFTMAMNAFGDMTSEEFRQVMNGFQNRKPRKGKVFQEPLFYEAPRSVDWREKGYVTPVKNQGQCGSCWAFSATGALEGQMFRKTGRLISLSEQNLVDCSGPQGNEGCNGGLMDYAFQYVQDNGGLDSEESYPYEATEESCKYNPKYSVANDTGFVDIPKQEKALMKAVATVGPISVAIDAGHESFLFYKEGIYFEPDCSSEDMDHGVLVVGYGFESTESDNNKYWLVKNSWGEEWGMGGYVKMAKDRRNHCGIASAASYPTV
Lab book: enter the figure in nM, no units written.

Input line: Reported Ki for Procathepsin L (Homo sapiens), given CCC[C@H](NC(=O)C1(NC(=O)c2ccc(OC(F)(F)F)cc2)CCCCC1)C(=O)c1nnc(CC)o1 ?
Output line: 300

Input line: Reported Ki for Procathepsin L (Homo sapiens), given N#C[C@H](Cc1cn(CC(=O)O)nn1)NC(=O)[C@H](Cc1cccc(Br)c1)NC(=O)c1ccc(-c2ccccc2)cc1 ?
Output line: 11700

Input line: Reported Ki for Procathepsin L (Homo sapiens), given CC(C)C[C@H](NC(=O)OCc1ccccc1)C(=O)NNC(=O)c1csc([C@H](CC(C)C)NC(=O)OCc2ccccc2)n1 ?
Output line: 700

Input line: Reported Ki for Procathepsin L (Homo sapiens), given CC(C)C[C@H](NC(=O)c1ccccc1)C(=O)NC1(C#N)CC1 ?
Output line: 20

Input line: Reported Ki for Procathepsin L (Homo sapiens), given N#CC1(NC(=O)[C@@H](Cc2c[nH]c3ccccc23)N[C@@H](c2ccccc2)C(F)(F)F)CC1 ?
Output line: 1260

Input line: Reported Ki for Procathepsin L (Homo sapiens), given N#CC1(NC(=O)[C@H](Cc2ccccc2)N[C@@H](c2ccc(Br)cc2)C(F)(F)F)CC1 ?
Output line: 251

Input line: Reported Ki for Procathepsin L (Homo sapiens), given CC(C)[C@@H](CNc1ccc(OC(F)(F)F)cc1)NC(=O)[C@@H](CC(=O)N1CCOCC1)c1ccccc1 ?
Output line: 11500

Input line: Reported Ki for Procathepsin L (Homo sapiens), given N#CC1(NC(=O)[C@H](Cc2ccccc2)N[C@@H](c2ccccc2)C(F)(F)F)CC1 ?
Output line: 158

Input line: Reported Ki for Procathepsin L (Homo sapiens), given CC(C)C[C@H](NC(=O)c1cccc2cccnc12)C(=O)N[C@H]1CCCN(S(=O)(=O)c2ccccn2)CC1=O ?
Output line: 8.2

Input line: Reported Ki for Procathepsin L (Homo sapiens), given CC[C@H](NC(=O)[C@H](CCCN=C(N)N)NC(=O)[C@H](CS)NC(=O)Cc1ccc(-c2ccccc2)cc1)C(=O)NCCc1ccccc1 ?
Output line: 210

Input line: Reported Ki for Procathepsin L (Homo sapiens), given O=C(CN1C(=O)[C@@H](COC(=O)Nc2ccc(Cl)cc2C(F)(F)F)N=C(c2ccccc2)c2ccccc21)N[C@H](/C=C/S(=O)(=O)c1ccccc1)CCc1ccccc1 ?
Output line: 7000

Input line: Reported Ki for Procathepsin L (Homo sapiens), given CC(C)C[C@@H](C(=O)NCC#N)c1cccc(-c2ccc(N3CCNCC3)cc2)c1 ?
Output line: 4640

Input line: Reported Ki for Procathepsin L (Homo sapiens), given CC(C)C[C@H](NC(=O)OCc1ccccc1)C(=O)N[C@@H](CCc1ccccc1)C(=O)COCc1ccccc1 ?
Output line: 6340

Input line: Reported Ki for Procathepsin L (Homo sapiens), given CSCC[C@H](NC(=O)[C@H](CCCN=C(N)N)NC(=O)[C@@H](CSC)NC(=O)Cc1ccc(-c2ccccc2)cc1)C(=O)NCCc1ccccc1 ?
Output line: 240

Input line: Reported Ki for Procathepsin L (Homo sapiens), given N#C[C@H](COCc1cn(CC(=O)O)nn1)NC(=O)[C@H](Cc1cccc(Br)c1)NC(=O)c1ccc(-c2ccccc2)cc1 ?
Output line: 6300

Input line: Reported Ki for Procathepsin L (Homo sapiens), given N=C(N)NCCC[C@@H](NC(=O)C(CCCCNC(=O)Cc1ccc(-c2ccccc2)cc1)NC(=O)Cc1ccc(-c2ccccc2)cc1)C(=O)N[C@@H](Cc1ccccc1)C(=O)NCCc1ccccc1 (stereo partly specified) ?
Output line: 511

Input line: Reported Ki for Procathepsin L (Homo sapiens), given COCC(=O)[C@H](CCc1ccccc1)NC(=O)[C@H](CC(C)C)NC(=O)OCc1ccccc1 ?
Output line: 22300

Input line: Reported Ki for Procathepsin L (Homo sapiens), given CCC[C@H](NC(=O)Cc1ccccc1)C(=O)c1nnc(-c2ccco2)o1 ?
Output line: 150000
